From: a melting point compilation (Tetko et al.; mined from patent text by program, amines drawn as free bases though some values may be those of a salt)

Catalogue of melting point readings, one per entry.

For orientation, consider the following solved cases.
CCCN(CCC)Cc1nnc(-c2ncn3c2[C@@H]2CCN2C(=O)c2c(Cl)cccc2-3)o1 ... 134 to 136 °C
O=c1[nH]c2cc(F)ccc2n(C(c2ccccc2)c2ccccc2)c1=O ... 144 °C

Please turn your attention to the following entry.
Look at this molecule and give its reported melting point. CCC1(CCCN2CCN(c3cccc(Cl)c3)CC2)C(=O)Nc2ccc(Cl)cc21 (stereo not drawn)
117 to 119 °C

###

VALUE_TYPE: melting point

// lookup melting point for CNC(=O)c1ccc(F)c2c1CC(N(CCCCc1c[nH]c3ccc(F)cc13)CC1CC1)CO2 (stereo not given)
112 °C

Moving on to N#Cc1ccc(-c2cc3c(O)ncnc3[nH]2)cc1
> 410 °C

Try this compound too: CCCCCCNC(=O)OC1CCN(C(=O)OCCCCCCNC(=O)Oc2ccc(Oc3ccccc3)cc2)CC1
84 to 86 °C

Another compound to check: BrCc1ncc(Br)cn1
55 to 57 °C

Check CCOC(=O)c1ccc(-c2cccc(CNC=O)n2)cc1 too.
120 °C

###

Item-by-item account of melting point

N#Cc1cc(C=O)ccc1-n1cncn1 ... 134 to 141 °C
CN(Cc1cccc2c1CN(C1CCC(=O)NC1=O)C2=O)C(=O)Nc1ccc2ccccc2c1 (stereo unspecified) ... 216 to 218 °C
O=[N+]([O-])c1ccc(S(=O)(=O)N2CCN(c3ccc(F)cc3)CC2)cc1 ... 189 to 191 °C
CCOP(=O)(CNc1cc(Oc2ccc(C(F)(F)F)cn2)ccc1[N+](=O)[O-])OCC ... 74 to 76 °C
Cc1nc(-c2ccc(C(F)(F)F)cc2)sc1C(=O)Nc1cc(Cl)ccc1-c1nnn[nH]1 ... 325 to 337 °C
Cc1ccc(S(=O)(=O)NCC(Cc2ccccc2)NS(=O)(=O)c2ccc(C)cc2)cc1 (stereo unspecified) ... 128 to 131 °C

So what's the measured melting point for this one? COC(=O)CC(C)(C)C(C)(C)S(=O)(=O)c1ccc(C)cc1
90 °C

Quick one: Cc1noc(NS(=O)(=O)c2cc(OCc3ccccc3)ccc2-c2ccc(CC(C)C)cc2)c1C
96 to 101 °C

Repeat for the following compound: CC(c1ccccc1)N1c2ccccc2Oc2ccccc21 (stereo unspecified)
100 °C

Okay, and CSc1nnc(C2(C)CC2)c(=O)n1N ?
115 to 116 °C

// repeat for Cn1c(C(=O)N(Cc2cc(C(F)(F)F)cc(C(F)(F)F)c2)Cc2cc(C(F)(F)F)cc(C(F)(F)F)c2)c(-c2ccc(F)cc2)c2cccnc2c1=O and report
252 to 254 °C

###

VALUE_TYPE: melting point

CC(C)(C)c1cc(OCc2ccccc2-c2nnn[nH]2)cc(C(C)(C)C)c1O ... 149 to 150 °C
O=c1c2cc(OCc3ccccc3)ccc2[nH]c2c([N+](=O)[O-])cc([N+](=O)[O-])c(Cl)c12 ... 217 to 220 °C
CCCCOC(=O)c1ccccc1-c1ccc(Cn2c(CCC)nc(C(C)(C)O)c2C(=O)OCOC(=O)OC(C)C)cc1 ... 85 to 87 °C
CS(=O)(=O)c1ccc(-c2cccn2-c2ccc(F)cc2F)cc1 ... 122 to 125 °C
COc1cc(C(C)=O)ccc1OC1CCCC1 ... 55 to 56 °C

Quick check: melting point of Nc1nc(NCCc2cccc(O)c2)nc2nc(-c3ccco3)nn12 ?
190 to 193 °C

Query C1=CSC(Sc2ccccc2)(c2ccc(Sc3ccccc3)s2)C1 (stereo not given) next
110 to 112 °C

And the next one, Cc1nn(C)c2c1N(C(=O)CN1CCCCC1)c1ccccc1NC2=O ?
156 to 158 °C

Please give the result for Oc1ccc(-c2ccc(OC(F)(F)F)cc2)cc1 too.
140 °C

Next: CN(CCc1ccccc1)c1nc(=O)c2cccnc2s1
115 to 116 °C
